# TGI listing for each entry below
# Test system: M19-MEL melanoma
# experiment: NCI tumour cell line growth inhibition, 48 h

O=C1C(=O)N(c2cccc(C(F)(F)F)c2)C(=O)C(=O)C1c1nc2ccccc2s1	> 100 µM

Any idea what its TGI is? The compound is CC(=O)ON(C(C)=O)C1C(COC(c2ccccc2)(c2ccccc2)c2ccccc2)OC2OC3(CCCC3)OC21 (stereo not given)
> 100 µM

Next entry: O=C1C2ON3c4ccccc4C(=O)C3(c3ccccc3)C2C(=O)N1c1ccccc1 (stereo not given)
> 100 µM

Next entry: `COc1cc(/C=C\c2ccc(OC(C)=O)cc2)cc(OC)c1OC`
> 100 µM

Next entry: `O=C(O)CCSC(=S)Nc1cccc(F)c1`
88.8 µM

----------
# Tested on: T-47D breast
# experiment: NCI tumour cell line growth inhibition, 48 h
quantity: TGI

COc1ncnc2c1cnn2Cc1cn(CCCCO)nn1	> 100 µM
COC(=O)C(=O)C(C(=O)C(=O)Nc1ccc(C)cc1)c1nc2ccc(C(=O)c3ccccc3)cc2[nH]c1=O (configuration not stated)	> 100 µM
NC(N)=NC(N)=Nc1ccccc1 (tested in a mixture with another compound)	81.4 µM
O=C(NNC(=S)NCc1ccccc1)C12CC3CC(CC(C3)C1)C2	> 100 µM
O=S(=O)(OI(O)CC(F)(F)F)C(F)(F)F	> 100 µM

Any idea what its TGI is? The compound is `CCCCCCN(C)Cc1ccc(OCCOc2ccc(CN(C)CCCCCC)cc2)cc1`
3.26 µM

Next entry: CC[C@@H](C)Nc1cc(C(=O)NC2CC3CCC(C2)N3c2ccc(C(=O)C3CC3)cn2)c(C)cc1C(N)=O (some centres not stated)
36 µM

Next entry: `O=C1NC(S(=O)(=O)O)=NNC12c1ccccc1-c1ccccc12`
> 10 µM

Next entry: `O=C(Nc1nc(-c2ccc(Cl)cc2)nc2c1sc(=S)n2-c1ccccc1)C(F)(F)F`
5.05 µM

Next entry: `O=C1C(Cl)=C(N2CCN(c3ccccn3)CC2)C(=O)c2ncccc21`
3.16 µM

Next entry: `COc1ccc(/C=C\c2cc(OC)c(OC)c(OC)c2)c(O)c1O`
> 79.7 µM

Next entry: `COC(=O)c1c(C(=O)OC)c2c3ccccc3n(C)c2c2c1c1ccccc1n2C`
> 100 µM

Next entry: COc1ccc(N2C(=O)/C(=C\c3cccc(Oc4ccccc4)c3)SC2c2ccccc2)cc1 (configuration not stated)
> 100 µM

Next entry: C[C@]12CC/C(=N\OCCN3CCCCC3)C=C1CCC1C2CC[C@@]2(C)C1CC[C@]2(C)O (some centres not stated)
97.2 µM

Next entry: `CC(C)CN(CC#N)CC(C)C`
> 100 µM

Next entry: `O=c1[nH]c(=O)n(C/C=C/CBr)nc1Br`
28.2 µM

Next entry: `CC[C@]12C=CCN3CC[C@@]4(c5ccc(OC)cc5N(C)[C@H]4[C@@](O)(C(=O)OC)[C@@H]1OC(=O)CCC(=O)N[C@H](Cc1c[nH]c4ccccc14)C(=O)OC)[C@@H]32`
30.3 µM

----------
# Tested on: SF-539 CNS
# experiment: NCI tumour cell line growth inhibition, 48 h
Kindly return True if reported TGI is no lower than 30 µM; return False if it is lower.

CCC[CH2][Sn]([CH2]CCC)([O]C(=O)c1cc(F)cc(F)c1)[O][Sn]([CH2]CCC)([CH2]CCC)[O]C(=O)c1cc(F)cc(F)c1	False
OC1CCC[C@@H]1Sc1ccccc1 (some centres undefined)	True
COc1ccc(CNC(=O)[C@H](Cc2ccc(O)cn2)NC(C)=O)cc1	True
CCN(CC)CCNc1ccc(C)c2sc3ccccc3c(=O)c12	False
Cc1cc(C)nc(NS(=O)(=O)c2ccc(NC(=O)c3ccc(Cl)c4c(Nc5ccc(S(=O)(=O)N=C(N)N)cc5)c5ccccc5nc34)cc2)n1	True
CC1OC(O[C@H]2CC[C@]3(C=O)[C@H]4CC[C@]5(C)[C@H](C6=CC(=O)OC6)CC[C@]5(O)[C@@H]4C=C[C@]3(O)C2)CC(O)C1O (some centres undefined)	False
CCN(CC)C(=S)SS(=O)(=O)c1ccccc1[N+](=O)[O-]	True
C[C@@H]1CC[C@@H]2[C@@H](C)C[C@H]3[C@@H]4C(C)(C)OC(=O)[C@]4(C)C(=O)[C@@]23C1=O	True
CC(Oc1ccccc1Cl)C(=O)NN1C(=O)CSC1c1ccc(Cl)cc1 (centres undefined)	True
O=C(c1ccccc1)c1c(CC(O)c2ccccc2)n(C(=O)c2ccccc2)c2ccccc12 (centres undefined)	True

Determine whether this compound has TGI no lower than 30 µM: `O=S(=O)(Nc1ccc2ccccc2c1)c1ccc(-c2cnc(C3CC3)o2)cc1`
False

Next entry: CCOc1c(C#N)c2c(N)ncnc2n1C1OC(CO)C(O)C1O (centres undefined)
True

----------
# Test system: BT-549 breast
# experiment: NCI tumour cell line growth inhibition, 48 h; in the data active = GI50 below about 0.43 µM; inactive = the rest
The reply should be one of these categories: active, inactive

O=C(NN1C(=O)CSC12CCCC2)C(O)c1ccccc1 (stereo not given)	inactive
O=C(NNC(=S)Nc1ccccc1)c1ccccn1	inactive
CCOc1c(C#N)c2c(N)ncnc2n1C1OC(CO)C(O)C1O (stereo not given)	inactive
CN1CCN(Cc2ccc(NC(=O)c3cncc(C#Cc4cnn5ccccc45)c3)cc2C(F)(F)F)CC1	inactive
CSc1ccc(C2=NN(C(C)=O)C(c3ccc(F)cc3)C2)cc1 (stereo not given)	inactive

Call for entry `O=C(O)Cn1c2c(c3c(O)cccc31)C(=O)c1ccccc1-2` :
inactive

Next entry: `CO[C@@H]1[C@H]2[C@@H](C)c3ccoc3C[C@@H]2[C@@]2(C)CC[C@H](OC(=O)c3ccccc3)[C@](C)(C(=O)O)[C@]2(O)[C@@H]1OC(=O)c1ccccc1`
inactive

Next entry: `O=C(Nc1nc(-c2ccc(Cl)cc2)nc2c1sc(=S)n2-c1ccccc1)C(F)(F)F`
inactive

Next entry: CC(C)CCC(=O)[C@@H](C)[C@H]1[C@@H](OC2OCC(O)C(O)C2NS(C)(=O)=O)C[C@H]2[C@@H]3CC=C4C[C@@H](O)CC[C@]4(C)[C@H]3CC[C@]12C (stereo not given in full)
active

Next entry: `CCOC(=O)c1csc(NC(=O)COc2cccc(/C=C3\CSc4ccccc4C3=O)c2)n1`
inactive

----------
# System: MDA-MB-231 breast
The reply should be one of these categories: label 1 = active, label 0 = inactive

Call for entry C=C1CCC2C3(C)COC(c4ccc(Cl)cc4)OC3CCC2(C)C1/C=C/C1=CCOC1=O (configuration not stated) :
label 0

Next entry: CC(C)CCC(=O)[C@@H](C)[C@H]1[C@@H](OC2OCC(O)C(O)C2NS(C)(=O)=O)C[C@H]2[C@@H]3CC=C4C[C@@H](O)CC[C@]4(C)[C@H]3CC[C@]12C (some centres not stated)
label 0

Next entry: `O=C(Nc1cccnc1)c1ccc2ccc3ccc(C(=O)Nc4cccnc4)nc3c2n1`
label 1

Next entry: `CO[C@@H]1[C@H]2[C@@H](C)c3ccoc3C[C@@H]2[C@@]2(C)CC[C@H](OC(=O)c3ccccc3)[C@](C)(C(=O)O)[C@]2(O)[C@@H]1OC(=O)c1ccccc1`
label 0

Next entry: `CN1CCN(Cc2ccc(NC(=O)c3cncc(C#Cc4cnn5ccccc45)c3)cc2C(F)(F)F)CC1`
label 0

Next entry: `Cc1cc(NNC(=O)c2ccccc2O)nc(Nc2nc3ccccc3o2)n1`
label 0

Next entry: `C[C@@H]1CC[C@@H]2[C@@H](C)C[C@H]3[C@@H]4C(C)(C)OC(=O)[C@]4(C)C(=O)[C@@]23C1=O`
label 0

----------
# System: DU-145 prostate
# experiment: NCI tumour cell line growth inhibition, 48 h
quantity: TGI (µM)
Response body: numeric value in µM, unit text excluded.

O=S(=O)(Nc1ccc2ccccc2c1)c1ccc(-c2cnc(C3CC3)o2)cc1	20.4

We next turn to a different compound, shown below.
Any idea what its TGI is? The compound is `CCOC(=O)c1[nH]c2nc(SC)nc(Nc3ccccc3Cl)c2c1N`
95.7

----------
# Test system: ACHN renal
# experiment: NCI tumour cell line growth inhibition, 48 h
quantity: log10(TGI) (log10 of the value in µM)
All values: log10 TGI [µM].

Some entries whose results are on file:
C=C1C(=O)OC2CC3(C)CCCC(C)C3=CC12 (configuration not stated)	1.02
COc1ccc(/C=C\c2cc(OC)c(OC)c(OC)c2)c(O)c1O	1.76
BrCC(Br)(c1ccccc1)c1ccccc1-c1cc(-c2ccccc2)cc(-c2ccccc2)n1 (configuration not stated)	1.38
CC(=O)Oc1c(C)c2c(c3ccccc13)OC(C)(C)C2	1.49
CCN(CC)CC(C)(C)C(=O)/C=C/c1ccc(/C=C/C(=O)C(C)(C)CN(CC)CC)cc1	0.49

Any idea what its log10(TGI) is? The compound is `CN(O)C(=S)c1ccccc1`
1.58

Next entry: C=C1CCC2C3(C)COC(c4ccc(Cl)cc4)OC3CCC2(C)C1/C=C/C1=CCOC1=O (configuration not stated)
1.71
